The following compounds are shown together with reported circulatory turnover flux values.
- Test name: Isotope tracer infusion: circulatory turnover flux (Fcirc)
- Format: in vivo, mouse
- Test settings: fasted mice
Measured parameter: circulatory turnover flux (nmol/g/min)

[[record]]
compound = "[2H]C(C)(O)C(=O)[O-].[Na+] (stereo not shown) [^2H-labeled lactate, Sodium [2-^2H]lactate]"
measured_parameter = "circulatory turnover flux"
reading = 550

[[record]]
compound = "[13CH3][13CH](O)[13C](=O)[O-].[Na+] (stereo not shown) [^13C-labeled lactate, Sodium [U-^13C]lactate]"
measured_parameter = "circulatory turnover flux"
reading = 380

